study_target: Serine/threonine-protein kinase mTOR (Homo sapiens)
condition_context: at 10 µM
I'd be grateful if you could share measured residual activity for these entries.
One number for each entry, in %.

Solved cases (5 shown):
[
  {
    "chemical_string": "Oc1ccc(Nc2nc(-c3ccc(Cl)cc3)cs2)cc1",
    "residual activity, %": 106
  },
  {
    "chemical_string": "COc1ccc(CNc2nc(N(CCO)CCO)nc3c2ncn3C(C)C)cc1",
    "residual activity, %": 99
  },
  {
    "chemical_string": "O=C1NC(=O)c2c1c1c3ccccc3[nH]c1c1[nH]c3cc(Br)ccc3c21",
    "residual activity, %": 113
  },
  {
    "chemical_string": "C[C@@H](N)[C@H]1CC[C@H](C(=O)Nc2ccncc2)CC1",
    "residual activity, %": 117
  },
  {
    "chemical_string": "CCN(CC)C(=O)c1ccc(Nc2nc(OCC3CCCCC3)c3nc[nH]c3n2)cc1",
    "residual activity, %": 55
  }
]

Your task in this section: give residual activity for each listed record.
1. Cc1nc(-c2ccccc2)c(-c2ccncc2)o1
2. CC(=O)O/N=C1\C(=C2\C(=O)Nc3cc(Br)ccc32)Nc2ccccc21
3. CC#CC(=O)Nc1cc2c(Nc3ccc(F)c(Cl)c3)ncnc2cn1
4. Nc1ccc2ncnc(NCCc3ccc(Oc4ccccc4)cc3)c2c1
5. O=C1NC(=O)/C(=C\c2ccc3nccnc3c2)S1
6. CCOc1cc2ncnc(Nc3cccc(Br)c3)c2cc1OCC
7. Cc1ccc(NC2=CC(=O)c3sc(C)nc3C2=O)cc1

Result ::
1: 94; 2: 84; 3: 92; 4: 63; 5: 36; 6: 100; 7: 86

----------
study_target: Dual specificity protein kinase CLK2 (Homo sapiens) (UniProt P49760)
Sequence (P49760 whole entry, looked up): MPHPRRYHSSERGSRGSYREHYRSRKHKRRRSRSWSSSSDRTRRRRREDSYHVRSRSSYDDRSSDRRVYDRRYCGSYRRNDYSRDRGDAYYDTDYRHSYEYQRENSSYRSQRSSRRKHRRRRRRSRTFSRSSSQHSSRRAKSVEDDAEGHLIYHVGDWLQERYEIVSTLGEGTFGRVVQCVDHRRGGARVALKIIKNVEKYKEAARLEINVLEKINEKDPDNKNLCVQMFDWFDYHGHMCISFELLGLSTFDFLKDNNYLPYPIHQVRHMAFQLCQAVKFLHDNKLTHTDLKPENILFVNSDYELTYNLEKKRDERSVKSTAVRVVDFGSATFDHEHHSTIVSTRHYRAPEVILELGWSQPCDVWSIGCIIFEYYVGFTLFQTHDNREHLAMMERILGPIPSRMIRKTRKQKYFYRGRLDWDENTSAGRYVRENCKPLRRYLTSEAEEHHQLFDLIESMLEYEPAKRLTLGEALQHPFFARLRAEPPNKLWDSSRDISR
condition_context: at 10 µM
# yes (1) = residual activity below 90% (exclusive); no (0) = residual activity at/above 90%

Study these solved cases before continuing.
[
  {
    "chemical_string": "O=C1NC(=O)c2cc(Nc3ccc(F)cc3)c(Nc3ccc(F)cc3)cc21",
    "study_target": "Dual specificity protein kinase CLK2 (Homo sapiens) (UniProt P49760)",
    "assigned_category": "yes (1)"
  },
  {
    "chemical_string": "Oc1ccc(-c2nc(-c3ccc(F)cc3)c(-c3ccncc3)[nH]2)cc1",
    "study_target": "Dual specificity protein kinase CLK2 (Homo sapiens) (UniProt P49760)",
    "assigned_category": "no (0)"
  },
  {
    "chemical_string": "N#C/C(=C(\\N)Sc1ccc(N)cc1)c1ccccc1C(F)(F)F",
    "study_target": "Dual specificity protein kinase CLK2 (Homo sapiens) (UniProt P49760)",
    "assigned_category": "no (0)"
  },
  {
    "chemical_string": "CCOc1cc2ncnc(Nc3cccc(Br)c3)c2cc1OCC",
    "study_target": "Dual specificity protein kinase CLK2 (Homo sapiens) (UniProt P49760)",
    "assigned_category": "yes (1)"
  }
]

Query :: Please indicate whether the reported residual activity of O=C1c2ccccc2-[n+]2ccc3c([nH]c4ccccc43)c21 is strictly below 90%.
Result :: no (0)

Query :: Please indicate whether the reported residual activity of Ic1cccc(CSc2nnc(-c3ccncc3)o2)c1 is strictly below 90%.
Result :: yes (1)
